Ref: PubChem BioAssay (NCI)

Test system: SK-OV-3 ovarian
Experiment: NCI-60 one-dose screen, 48 h (100 = growth as untreated, 0 = no growth, -100 = all killed)
Details: 10 µM unless noted
About 83,000 compounds went through this panel and 20% of them were active in at least one assay; those are over-represented in the sample as a whole.
measured quantity: growth (%)
Note: unit % is implicit; provide only the numeric part.

Below, each entry is followed by its recorded growth result.
chemical string	assayed system	readout units	growth
C=C1C(=O)O[C@H]2[C@H]1CC/C(CNC(=O)c1cccc3ccccc13)=C\CC[C@@]1(C)O[C@@H]21	SK-OV-3 ovarian	%	110
CCCOC(=O)N[C@H]1CCc2cc(OC)c(OC)c(OC)c2-c2ccc(SC)c(=O)cc21	SK-OV-3 ovarian	%	42.7
O=S(=O)(NCCCNc1nccc(-c2c(-c3cccc(O)c3)nc3occn23)n1)c1ccc(Cl)cc1	SK-OV-3 ovarian	%	75.4

Could you now consider this next compound?
Query: What does the record list as growth for COc1ccc(C(=O)NNc2nc(Cl)nc(N3CCN(C(c4ccccc4)c4ccccc4)CC3)n2)cc1 ?
Reply: 101

----------
Tested on: KM12 colon
Assay: NCI-60 one-dose screen, 48 h (100 = growth as untreated, 0 = no growth, -100 = all killed)
Conditions: 10 µM unless noted
About 83,000 compounds went through this panel and 20% of them were active in at least one assay; those are over-represented in the sample as a whole.
Let's look at some compounds and their measured growth.
Reply numerically in %, unit not repeated.

compound	assayed system	readout units	growth
CN[C@@H](C)C(=O)N[C@H]1CCS[C@H]2CC(C)(C)[C@@H](C(=O)N[C@H]3c4ccccc4C[C@H]3OCC#CC#CCO[C@@H]3Cc4ccccc4[C@@H]3NC(=O)[C@H]3N4C(=O)[C@@H](NC(=O)[C@H](C)NC)CCS[C@H]4CC3(C)C)N2C1=O	KM12 colon	%	110
O=S(=O)(Nc1ccc(-n2cnc3cc(-c4ccc(O)cc4)ccc32)cc1)c1ccccc1	KM12 colon	%	54.6

Okay, now this compound:
Query: Consider the compound shown here: C[C@H]1[C@H]2[C@H]3CC[C@@H]4[C@@]5(C)CC[C@H](O)C(C)(C)[C@@H]5CC[C@@]4(C)[C@]3(C)CC[C@]23CO[C@]1(C)[C@@H](C(=O)/C=C\c1ccco1)C3 What is its recorded growth?
Reply: 100

----------
Property: growth; scope: individual molecules
Test system: NCI-H460 lung
Test: NCI-60 one-dose screen, 48 h (100 = growth as untreated, 0 = no growth, -100 = all killed)
Details: 10 µM unless noted
This is part of a sample that, as a whole, favours compounds with a hit. Of some 83,000 tested, about 20% had one in any assay.
State just the number; it will be interpreted in %.

chemical string	measured quantity	measured value
COc1ccc(C(=O)/C=C/c2cc3ccccc3n3nnnc23)cc1	growth	112
Cc1nn(-c2ccccc2)c(Oc2c(Cl)cccc2Cl)c1/C=N/N=c1\sc2ccccc2n1C	growth	17.4
O=C1Nc2cc(-c3ccc(NC(=O)c4ccccc4)cc3)ccc2/C1=C/c1ccc[nH]1	growth	83.4
COc1ccc2c(c1)oc1c(C)c3c(c(C)c12)C(=O)N(CCN1CCOCC1)C3=O	growth	101

Next up:
Query: Name the reported growth value associated with the molecule C/C(=N\NC(=O)CSc1nc2ccccc2c(=O)n1CCc1ccc(S(N)(=O)=O)cc1)c1ccccn1
Reply: 12.1

----------
Test system: HT29 colon
Assay: NCI-60 one-dose screen, 48 h
Conditions: 10 µM unless noted
This is part of a sample that, as a whole, favours compounds with a hit. Of some 83,000 tested, about 20% had one in any assay. The source made the active and inactive calls. The calls were made as follows: active = growth percent below 10; inactive = the rest.
Hi there, use one of these labels in your reply, thanks! active, inactive

Worked cases, answers included:
compound	category
COc1cc2nc(-c3ccc(Cl)cc3)cc(OCCCN3CCOCC3)c2cc1OC	inactive
C[C@H](c1nc2ccc(N)cc2[nH]1)[C@H]1CC[C@H]2[C@@H]3CCC4=CC(=O)CC[C@]4(C)[C@H]3CC[C@]12C	inactive
C=C1C(=O)O[C@H]2[C@H]1CC/C(COC(=O)NCC(C)c1ccc(CC(C)C)cc1)=C\CC[C@@]1(C)O[C@@H]21 (stereo partly drawn)	active
COc1cc(NCCCCCNC(C)(C)C)c2ncccc2c1	inactive
C/C(=N\Nc1cc(C)nc2ccc(Br)cc12)c1ccc([N+](=O)[O-])cc1	inactive
OC(c1ccc(F)c(C(F)(F)F)c1)c1cnccc1NC1CCCCC1 (stereo not drawn)	inactive
CCCCCN1C=C/C(=C\C(=O)n2ccc3ccccc32)c2ccccc21	inactive
NC1[C@H](c2c[nH]c3ccccc23)c2c([nH]c3ccccc23)[C@H]1c1c[nH]c2ccccc12 (stereo partly drawn)	inactive

Query: Assay outcome for CCCCCOc1ccc(/C=N/Nc2cc(C)nc3ccc(Cl)cc23)cc1 : what was it?
Reply: active

Query: I would be grateful if you could indicate the recorded call for Cc1cnc(C(=O)Nc2nc3ccc(S(=O)(=O)Nc4ccc(C5(C(F)(F)F)CC5)cc4)cc3[nH]2)cn1 .
Reply: active

Query: What did this assay record as the result for Cn1c(N2NC(=O)C(N=Nc3ccc(S(N)(=O)=O)cc3)C2=O)nc(-c2ccco2)c(C#N)c1=O (stereo not drawn) ?
Reply: inactive

Query: What did the test return for CCN1C(=O)/C(=C/C(=O)OC)S/C1=N\NC(=O)c1cc2ccc1/C=C\c1ccc(cc1)/C=C\2 ?
Reply: inactive

Query: Hello, I am checking results. What call was entered for C=C(C)[C@@H]1CC[C@]2(C(=O)N3CCN(C)CC3)CC[C@]3(C)[C@H](CC[C@@H]4[C@@]5(C)CC[C@H](O)C(C)(C)[C@@H]5CC[C@]43C)[C@@H]12 ?
Reply: active

Query: Hey, what did the test say about C[C@@H](Nc1ncnc2ccc(-c3cnc(N)nc3)cc12)c1ccc(F)cc1 ?
Reply: inactive

Query: Write down the call the test reported for this compound. Item: Cc1cccc(NC(=O)Nc2ccc(-n3cnc4cc(-c5ccc(O)cc5)ccc43)cc2)c1
Reply: inactive

Query: Please state the recorded outcome for this compound: C#Cc1cccc(NC(=O)c2cccc(NC(=O)CCl)c2)c1
Reply: active

Query: In this assay, the call recorded for COc1cc(/C(C)=C(\c2ccc(Cl)cc2)c2ccc(OCCN3CCCC3)cc2)ccc1F was what?
Reply: active

Query: recorded result category for CC(=O)O[C@H]1Cc2c([nH]c3ccccc23)[C@@H](c2ccc(Cl)cc2)N1C(=O)CCNC(C)(C)C in this test
Reply: inactive

----------
Test system: OVCAR-3 ovarian
Assay: NCI-60 one-dose screen, 48 h
Conditions: 10 µM unless noted
This is part of a sample that, as a whole, favours compounds with a hit. Of some 83,000 tested, about 20% had one in any assay. Calls of active or inactive are those of the source. The calls were made as follows: active = growth percent below 10; inactive = the rest.
Answer with one of the outcomes active, inactive

Query: Identify the outcome logged in this assay for the compound shown: COc1ccccc1NS(=O)(=O)c1cccc(C(=O)Nc2ccc(Br)cc2)c1
Reply: inactive

Query: Record request — test call for O=C(/C=C/c1ccc[nH]1)c1ccc(-n2ccc(C(F)(F)F)n2)c(F)c1
Reply: inactive

Query: Short answer needed: outcome of this test for CNC(=O)c1cccc(Cn2nc(C)c(NC(=O)c3ccc(COc4ccc(C(F)(F)F)cc4C)cc3)c2C)n1 ?
Reply: inactive

Query: Fill in: this test's call for CN1CCN(C(=O)[C@]23CCC(C)(C)C[C@H]2C2=CC[C@@H]4[C@@]5(C)C/C(=C/c6ccncc6)C(=O)C(C)(C)[C@@H]5CC[C@@]4(C)[C@]2(C)CC3)CC1 is ___
Reply: inactive

----------
Test system: NCI-H522 lung
Assay: NCI-60 one-dose screen, 48 h
Conditions: 10 µM unless noted
The panel holds about 83,000 compounds, 20% with a hit somewhere; the sample as a whole holds those more often. Activity calls are given as the source filed them. Rule for the calls: active = growth percent below 10; inactive = the rest.
Output constraint: value belongs to active, inactive

Solved entries:
molecule	assayed system	category
O=C(CCN1CCCC1)Nc1ccc2c(NCCc3ccccc3)c3ccccc3nc2c1	NCI-H522 lung	active
CCCCCCCCOc1ccc(/C=N/Nc2cc(C)nc3ccc(Br)cc23)cc1	NCI-H522 lung	inactive
CC(=O)O[C@@H]1C2CCC3C(CC[C@@]4(C)C3CC[C@@H]4C(C)N(C)C)[C@@]2(C)CC[C@@H]1NC(=O)C=C(C)C (some centres undefined)	NCI-H522 lung	inactive
Oc1ccc(OCCOc2ccc(O)cc2)cc1	NCI-H522 lung	inactive
CCCCC/C=C/C(C)=C/C1CC(C)C/C=C/CCC(O)C(OC(N)=O)CCC(C)CC(O)C(C)C(=O)O1 (centres undefined)	NCI-H522 lung	inactive
COc1ccc(/C=C/c2nc(Nc3cccc(NC(C)=O)c3)c3ccccc3n2)cc1	NCI-H522 lung	inactive
COC(=O)CNC(=O)[C@]12CCC(C)(C)C[C@H]1C1=CC[C@@H]3[C@@]4(C)Cc5c([nH]c6ccccc56)C(C)(C)[C@@H]4CC[C@@]3(C)[C@]1(C)CC2	NCI-H522 lung	inactive
COc1ccc(C/C(=C(\C)c2ccc(OCCN3CCCC3)cc2)c2ccc(OCCN3CCCC3)cc2)cc1	NCI-H522 lung	inactive

Now examine the next entry.
Query: Could you check what this test reported for N#C/C(=C\c1ccc(Cl)cc1)n1nnc2cc(F)c(F)cc21 ?
Reply: active
